Target: human chemokine receptor 2 isoform B (Homo sapiens, UniProt P41597)
Construct: host or cells: CHOK1-CCR2B-A5 cells (CHO-K1)
Sequence (P41597 1-360 isoform P41597-2): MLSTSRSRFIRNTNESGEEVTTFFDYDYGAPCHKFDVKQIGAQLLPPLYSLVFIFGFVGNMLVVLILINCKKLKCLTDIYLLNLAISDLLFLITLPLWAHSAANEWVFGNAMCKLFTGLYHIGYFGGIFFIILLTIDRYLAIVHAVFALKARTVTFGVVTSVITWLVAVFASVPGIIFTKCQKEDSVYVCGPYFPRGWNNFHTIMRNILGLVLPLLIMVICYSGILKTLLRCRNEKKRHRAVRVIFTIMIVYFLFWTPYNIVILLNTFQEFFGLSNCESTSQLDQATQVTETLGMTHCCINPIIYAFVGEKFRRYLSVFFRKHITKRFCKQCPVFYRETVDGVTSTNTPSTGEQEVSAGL
Test: Calcium mobilization assay (FLIPR, antagonist activity against MCP-1)
Assay type: cell-based
Details: Ca mobilisation assay, CHOK1-CCR2B-A5 cells, inhibition of calcium increase induced by 20 nM MCP-1
pIC50: −log10 of the molar value.
Parameter: pIC50

| Compound | Experimental value |
| --- | --- |
| C[C@H]1C(=O)N(CCCC(=O)N2CCS(=O)(=O)CC2)CCN1C(=O)Nc1cccc(Cl)c1 [Example 110] | 5.87 |
| C[C@H]1C(=O)N(CCC(=O)N2CCC3(CC3)[C@H](O)C2)CCN1C(=O)Nc1ccc(Cl)c(Cl)c1 [Example 15] | 6.62 |
| C[C@H]1C(=O)N(CC(O)CC(=O)N2CCC3(CC3)[C@H](O)C2)CCN1C(=O)Nc1ccc(C(F)(F)F)c(C(F)(F)F)c1 (stereo partly drawn) [Example 47] | 8.27 |
| COC(=O)C(CC(=O)N1CCC2(CC2)[C@H](O)C1)N1CCN(C(=O)/C=C/c2ccc(Cl)c(Cl)c2)CCC1=O (stereo partly drawn) [Example 7] | 6.34 |
| C[C@H]1C(=O)N(CCCC(=O)N2CCC3(CC3)[C@H](O)C2)[C@H](C(N)=O)CN1C(=O)Nc1ccc(C(F)(F)F)c(Cl)c1 [Example 147] | 8.46 |
| C[C@H]1C(=O)N(CCCC(=O)N2CCC3(CC3)[C@H](O)C2)CCN1C(=O)Nc1ccc(C(F)(F)F)c(Cl)c1 [Example 33] | 8.36 |
| CC1CCN(C(=O)CCN2CCN(C(=O)/C=C/c3ccc(Cl)c(Cl)c3)CCC2=O)CC1 [Example 85] | 5.82 |
| C[C@H]1CCN(C(=O)CCCN2CCN(C(=O)Nc3cccc(Cl)c3)[C@@H](C)C2=O)C[C@H]1O [Example 111] | 6.05 |
| COC(=O)[C@@H](CCC(=O)N1CCC2(CC2)[C@H](O)C1)N1CCN(C(=O)Nc2ccc(C(F)(F)F)c(Cl)c2)[C@@H](C)C1=O [Example 145] | 5.20 |
